Test system: PC-3 prostate
PROTOCOL SUMMARY: NCI-60 one-dose screen, 48 h (100 = growth as untreated, 0 = no growth, -100 = all killed)
MEASUREMENT PARAMETERS: 10 µM unless noted
This is part of a sample that, as a whole, favours compounds with a hit. Of some 83,000 tested, about 20% had one in any assay.
ENDPOINT: growth (%)
Give bare numbers, in %.

| MOLECULE | MEASURED TARGET | UNIT STRING | growth |
| --- | --- | --- | --- |
| CC(SC(C)C(=O)N/N=C/c1cccc(Cl)c1)C(=O)N/N=C\c1cccc(Cl)c1 (centres undefined) | PC-3 prostate | % | 53.5 |
| COc1ccc(C2NC(=O)c3cc4c(cc3N2)OCO4)cc1 (centres undefined) | PC-3 prostate | % | 27.9 |
| COc1ccc2c(c1)C1=NN(C(=O)CO)[C@H](c3ccc(OC(F)(F)F)cc3)[C@@H]1CC2 | PC-3 prostate | % | 72.9 |
| CCN(CC)CCCC(C)Nc1ccnc2ccc(Oc3ccccc3)cc12 (centres undefined) | PC-3 prostate | % | 84.9 |
| COc1ccc(C(=O)OC2C(OC3C(O)COC(O[C@H]4C[C@H]5[C@@H]6CC=C7C[C@@H](O)CC[C@]7(C)[C@H]6CC[C@]5(C)[C@H]4[C@H](C)C(=O)CCC(C)C)C3OC(N)=O)OCC(O)C2O)cc1 (some centres undefined) | PC-3 prostate | % | -28.1 |
| O/N=C1\c2ccccc2-c2ccc(Br)cc21 | PC-3 prostate | % | 101 |
| Cc1cc(-c2ccccc2)on1 | PC-3 prostate | % | 97.7 |
| O=C(Nc1ccc(Br)cc1)c1ccc(Cl)c(Cl)c1 | PC-3 prostate | % | -22 |

For the next question, use this molecule.
For the molecule `CN(C)N1C(=O)c2c(Cl)c(Cl)c(Cl)c(Cl)c2C1=O` , what growth is on record?
99.2

====

Tested on: RXF 393 renal
PROTOCOL SUMMARY: NCI-60 one-dose screen, 48 h (100 = growth as untreated, 0 = no growth, -100 = all killed)
MEASUREMENT PARAMETERS: 10 µM unless noted
This is part of a sample that, as a whole, favours compounds with a hit. Of some 83,000 tested, about 20% had one in any assay. The source made the active and inactive calls. The calls were made as follows: active = growth percent below 10; inactive = the rest.
Consider the following compounds; for each one, report its growth.

Check out these entries, answers already filled in.
| COMPOUND | growth |
| --- | --- |
| CCc1c(C)c2ccc(O)c(-c3cc(-c4ccccc4)c(C#N)c(=O)[nH]3)c2oc1=O | 99.2% (inactive) |
| CCN(CCC#N)c1ccccc1 | 122% (inactive) |
| CCC(=O)OCc1ccc(OC)cc1 | 118% (inactive) |

// for each compound below, give its growth
1. CN(C)c1nc(-c2cccs2)n2nc(-c3ccco3)cc2n1
2. CC(=O)OC[C@H]1O[C@@H](n2c(=O)cc(N)[nH]c2=O)C(OC(C)=O)[C@@H]1OC(C)=O (some centres undefined)

83.7% (inactive)
104% (inactive)

// for each compound below, give its growth
1. Cc1ccc(C)c2c1SC1=NNC(Oc3ccc(Cl)cc3)=C(C#N)C(=N)N12
2. CN(C)c1ccc(C2(Cl)c3ccccc3N(C)c3ccccc32)cc1
3. CCOC(=O)C1OC2(CCCC2)OC1C(=O)OCC (centres undefined)
4. CS(=O)(=O)c1ccc(C(=O)N/N=C/c2ccccc2O)cc1
5. CN(C)CC(=O)c1ccc2cc(Br)c3ccccc3c2c1

118% (inactive)
74% (inactive)
104% (inactive)
53% (inactive)
72.2% (inactive)

// for each compound below, give its growth
1. COc1ccc2nc3ccccc3c(NCc3ccc(C)cc3)c2c1
2. CCCCCCCCCCCCCCCC1=NC(C)(C)CN1C(C)C
3. O=C1CCCN1C1CCN2CCCc3cccc1c32 (centres undefined)
4. c1ccc(-c2ccc(-c3ccccc3)[nH]2)cc1

1: 6.17% (active); 2: -68.9% (active); 3: 128% (inactive); 4: 102% (inactive)

====

Tested on: A498 renal
PROTOCOL SUMMARY: NCI-60 one-dose screen, 48 h
MEASUREMENT PARAMETERS: 10 µM unless noted
This is part of a sample that, as a whole, favours compounds with a hit. Of some 83,000 tested, about 20% had one in any assay. The source made the active and inactive calls. How the source made its calls: active means growth percent below 10; inactive means the rest.
Mark one answer only. Choices: true (1) for active, false (0) for inactive

| COMPOUND | LABEL |
| --- | --- |
| CC1OC(n2c3ccccc3c3c4c(c5c6ccccc6[nH]c5c32)C(=O)N(CCN2CCOCC2)C4=O)CC(O)C1O (configuration not stated) | false (0) |

// outcome(item) with item = `Cc1c(C(N)=O)sc2ncn(CC(=O)NN=C3CCCCC3)c(=O)c12`
false (0)

// outcome(item) with item = `C=CCCCCOc1cccc(/C=C2\N=C3SCCCN3C2=O)c1`
false (0)

// outcome(item) with item = `Cc1ccccc1NC(=O)c1sc2nc3c(cc2c1N)C(=O)CCC3`
false (0)

// outcome(item) with item = CN1C(=O)N(C)C2C1NN=c1s/c(=C\c3ccc(C(F)(F)F)cc3)c(=O)n12 (configuration not stated)
false (0)

// outcome(item) with item = `COc1nccc2c(Sc3ccccc3)nc(N)nc12`
false (0)

// outcome(item) with item = `CCCCCCCC/C=C/CCCCCCCC1=NC(C)(C)CN1C(C)C`
false (0)

====

Tested on: NCI-H522 lung
PROTOCOL SUMMARY: NCI-60 one-dose screen, 48 h
MEASUREMENT PARAMETERS: 10 µM unless noted
This is part of a sample that, as a whole, favours compounds with a hit. Of some 83,000 tested, about 20% had one in any assay. Active and inactive are the calls of the source. The calls were made as follows: active = growth percent below 10; inactive = the rest.
Mark one answer only. Choices: active, inactive

A selection of reference data follows.
| SMILES REPRESENTATION | MEASURED TARGET | LABEL |
| --- | --- | --- |
| N/C(=C\C(=O)n1nc(-c2ccccc2)cc1N)c1ccccc1 | NCI-H522 lung | active |
| CCCCCCCC/C=C\CCCCCCCC(=O)OCCCCCC | NCI-H522 lung | inactive |
| COc1ccc(-c2conc2-n2nc(-c3ccccc3)nc2-c2ccccc2)cc1 | NCI-H522 lung | inactive |

# ---- query compound ----
// outcome(item) with item = `Oc1ccc(-c2nnc3c4[nH]ccc4ncn23)cc1`
inactive

====

System: U251 CNS
PROTOCOL SUMMARY: NCI-60 one-dose screen, 48 h
MEASUREMENT PARAMETERS: 10 µM unless noted
The panel holds about 83,000 compounds, 20% with a hit somewhere; the sample as a whole holds those more often. Calls of active or inactive are those of the source. Rule for the calls: active = growth percent below 10; inactive = the rest.
Mark one answer only. Choices: active, inactive

A selection of reference data follows.
| MOLECULE | LABEL |
| --- | --- |
| CC(C)(C)c1cc(C[P+](c2ccccc2)(c2ccccc2)c2ccccc2)cc(C(C)(C)C)c1O | active |
| CN1C2CCC1/C(=C\c1ccc(F)cc1)C(=O)/C2=C/c1ccc(F)cc1 | inactive |
| O=C1Nc2ccccc2/C1=C\c1nc(C2CCN(S(=O)(=O)c3ccc(F)cc3)CC2)n2ccccc12 | inactive |
| O=C(Nc1ccc([N+](=O)[O-])cc1)c1cc2ccccc2cc1O | active |
| C#CCO[C@H]1CC[C@H](OCC#C)[C@@H]2[C@H]1[C@H]1C[C@@H]3[C@@]4(C)CCC[C@@](C)(C(=O)OC)[C@@H]4CC[C@@]23C=C1C(C)C | inactive |

// outcome(item) with item = `CCN(CCC#N)c1ccccc1`
inactive

// outcome(item) with item = COc1cc(CN(c2ccc(C)cc2)C2OC(=O)c3ccccc32)cc(OC)c1OC (configuration not stated)
inactive

// outcome(item) with item = COc1cc(CN(CCC(O)N2CCCC2=O)Cc2ccc3c(c2)OCO3)cc(OC)c1OC (configuration not stated)
inactive

// outcome(item) with item = `O=C(O/C(=C/c1ccccc1)C(F)(F)F)c1ccccc1`
inactive

// outcome(item) with item = `CC(C)(C)c1ccc(C(=O)Nc2sc3cc(O)ccc3c2C(N)=O)cc1`
inactive

// outcome(item) with item = `COc1ccc(/C=N/NC(N)=S)c(OC)n1`
inactive

====

Consider the following compounds; for each one, report its growth.
Test system: SR leukemia
PROTOCOL SUMMARY: NCI-60 one-dose screen, 48 h (100 = growth as untreated, 0 = no growth, -100 = all killed)
MEASUREMENT PARAMETERS: 10 µM unless noted
About 83,000 compounds went through this panel and 20% of them were active in at least one assay; those are over-represented in the sample as a whole.
Answers are plain numbers, in %.

// for each compound below, give its growth
1. Cn1c(-c2ccccc2)cc(=O)n1-c1ccccc1
2. C=CCCCCOc1cccc(/C=C2\N=C3SCCCN3C2=O)c1
3. CCCCCCCCN=C(NCCCCCCCC)SCc1cccc2ccccc12
4. CN(C)CCNC(=O)n1cc(-c2ccncc2)c(-c2cc(O)cc(Cl)c2)n1

1. 101
2. 125
3. -34.6
4. 29.6

// for each compound below, give its growth
1. COc1ncnc2[nH]cc(CN3CCN(c4ccc(F)cc4)CC3)c12
2. O=C(NCCN1CCCC1)n1cc(-c2ccncc2)c(-c2cc(O)cc(Cl)c2)n1
3. CCOC(=O)c1ccc(NC(=O)CSC(N)=O)cc1
4. COc1ccc(C(=O)C(CN(C)C)c2ccc(OC)cc2)cc1 (centres undefined)

105
49.6
96.8
0.837
